# system.under.test: Carnitine O-palmitoyltransferase 1, liver isoform (Rattus norvegicus, UniProt P32198)
# Sequence (P32198 whole entry, canonical isoform): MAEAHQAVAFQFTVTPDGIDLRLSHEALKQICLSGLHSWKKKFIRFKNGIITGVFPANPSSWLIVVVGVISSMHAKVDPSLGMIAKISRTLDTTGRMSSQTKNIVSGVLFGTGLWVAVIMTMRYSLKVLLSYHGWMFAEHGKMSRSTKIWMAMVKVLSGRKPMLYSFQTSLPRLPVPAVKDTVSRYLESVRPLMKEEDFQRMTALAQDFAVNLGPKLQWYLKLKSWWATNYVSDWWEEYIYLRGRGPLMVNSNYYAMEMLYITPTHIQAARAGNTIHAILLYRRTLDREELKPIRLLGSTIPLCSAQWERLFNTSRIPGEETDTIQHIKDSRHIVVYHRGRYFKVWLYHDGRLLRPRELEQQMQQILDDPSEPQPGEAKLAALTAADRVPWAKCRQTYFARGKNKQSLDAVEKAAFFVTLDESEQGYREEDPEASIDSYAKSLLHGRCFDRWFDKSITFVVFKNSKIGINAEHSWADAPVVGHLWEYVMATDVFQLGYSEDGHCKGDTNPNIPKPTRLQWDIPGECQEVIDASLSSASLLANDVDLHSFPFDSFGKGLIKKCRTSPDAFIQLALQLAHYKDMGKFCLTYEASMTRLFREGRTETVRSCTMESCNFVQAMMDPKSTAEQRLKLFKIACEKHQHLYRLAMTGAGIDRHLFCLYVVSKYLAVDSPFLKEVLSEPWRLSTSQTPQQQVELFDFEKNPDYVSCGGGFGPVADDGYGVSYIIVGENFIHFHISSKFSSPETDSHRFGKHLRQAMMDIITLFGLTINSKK
# test.name: Inhibition of rat liver carnitine palmitoyltransferase I
# measurement.conditions: read-out: Ki app
metric.name: Ki (nM)
Write it as a number; the unit nM goes unstated.

Summary line: CCCCCCCCCCCCCCNC(=O)N[C@@H](CC(=O)[O-])C[N+](C)(C)C , Carnitine O-palmitoyltransferase 1, liver isoform (Rattus norvegicus, UniProt P32198), reported Ki = 360

###

# system.under.test: Carnitine O-palmitoyltransferase 1, liver isoform (Rattus norvegicus, UniProt P32198)
# test.name: Inhibition of [14C]palmitoyl-CoA and carnitine binding to carnitine palmitoyltransferase I from rat liver mitochondria
This section presents compounds with their documented pIC50 values.
pIC50 here: minus log base 10 of the concentration, concentration in moles per litre.

Reference set, count: 4
Entry CCCCCCCCCCCCS(=O)(=O)N[C@H](CC(=O)[O-])C[N+](C)(C)C , pIC50 reported as 5.22

Recorded pIC50 (compound CCCCCCCCCCCCCCNC(=O)N[C@@H](CC(=O)[O-])C[N+](C)(C)C ): 5.96

Record CCCCCCCCCCCCNC(=O)N[C@@H](CC(=O)[O-])C[N+](C)(C)C . Reported pIC50: 5.74

Entry CCCCCCCCCNC(=O)N[C@@H](CC(=O)[O-])C[N+](C)(C)C ; pIC50 = 4.50

Continuing:
For this compound ( CCCCCCCNC(=O)N[C@@H](CC(=O)[O-])C[N+](C)(C)C ), measured pIC50 is 4.36

So, CCCCCCCCCCCCCCNC(=O)N[C@H](CC(=O)[O-])C[N+](C)(C)C [TEGLICAR] ? Its pIC50 was 4.23

Notebook: CCCCCCCCOC(=O)N[C@@H](CC(=O)[O-])C[N+](C)(C)C , pIC50 read as 5.02

For CCCCCCCCCCCCS(=O)(=O)N[C@@H](CC(=O)[O-])C[N+](C)(C)C the compound record lists pIC50 as 6.15

###

// reported IC50 per item
# system.under.test: Carnitine O-palmitoyltransferase 1, muscle isoform (Rattus norvegicus, UniProt Q63704)
# Sequence (Q63704 whole entry): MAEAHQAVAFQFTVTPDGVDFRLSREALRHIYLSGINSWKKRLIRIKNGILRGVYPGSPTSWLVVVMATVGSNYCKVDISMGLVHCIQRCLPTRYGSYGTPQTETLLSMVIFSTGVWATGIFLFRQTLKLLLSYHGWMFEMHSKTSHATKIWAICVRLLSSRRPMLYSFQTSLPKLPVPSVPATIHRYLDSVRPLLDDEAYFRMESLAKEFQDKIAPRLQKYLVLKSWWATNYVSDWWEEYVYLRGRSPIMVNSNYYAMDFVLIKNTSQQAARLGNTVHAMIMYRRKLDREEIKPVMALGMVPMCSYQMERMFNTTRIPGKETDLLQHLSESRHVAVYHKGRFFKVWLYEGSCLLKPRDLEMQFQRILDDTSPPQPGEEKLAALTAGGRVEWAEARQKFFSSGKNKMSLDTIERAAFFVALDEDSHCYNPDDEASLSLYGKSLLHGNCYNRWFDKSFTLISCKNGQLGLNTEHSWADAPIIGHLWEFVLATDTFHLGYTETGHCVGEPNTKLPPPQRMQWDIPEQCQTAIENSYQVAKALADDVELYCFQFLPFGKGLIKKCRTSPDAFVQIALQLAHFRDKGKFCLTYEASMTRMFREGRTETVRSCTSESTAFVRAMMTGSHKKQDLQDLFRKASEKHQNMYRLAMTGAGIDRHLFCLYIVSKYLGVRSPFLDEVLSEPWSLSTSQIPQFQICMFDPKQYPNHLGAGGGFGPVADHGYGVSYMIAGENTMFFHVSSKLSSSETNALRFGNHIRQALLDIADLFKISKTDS
# test.name: In vitro inhibition of [14C]palmitoyl-CoA and carnitine binding to carnitine palmitoyltransferase I of rat heart mitochondria
Give a bare numeral; the unit µM is implied.

Below: 3 compounds and their reported IC50.
Entry CCCCCCCCCCCCS(=O)(=O)N[C@@H](CC(=O)[O-])C[N+](C)(C)C — recorded IC50 = 3.4

Just so you know, measured IC50 for CCCCCCCCCNC(=O)N[C@@H](CC(=O)[O-])C[N+](C)(C)C came out at 46.2

According to the records, this compound CCCCCCCCOC(=O)N[C@@H](CC(=O)[O-])C[N+](C)(C)C displays IC50 of 80.1

New cases:
Lab note: measured IC50 of CCCCCCCCCCCNC(=O)N[C@@H](CC(=O)[O-])C[N+](C)(C)C was 118

Sure, the documented IC50 for CCCCCCCCCCCCCCNC(=O)N[C@@H](CC(=O)[O-])C[N+](C)(C)C is 43.4

response.value for CCCCCCCCCCCCCCNC(=O)N[C@H](CC(=O)[O-])C[N+](C)(C)C [TEGLICAR] (field: IC50) = 167
